protocol summary: Test on the solubility in a simulated body fluid
Type: physicochemical
condition summary: 0.01 M PBS pH 7.4, 37° C., 1 h
Protocol: Test on the Solubility in a Simulated Body Fluid The concentration of the drug dissolved in the PBS buffered solution was determined with an HPLC-a method.
Would you mind telling me the reported Compound concentration: DTTA of each entry?
Report only the number, with the unit µM understood.

Prompt: Return Compound concentration: DTTA for the following molecule: CCCCN1CCCCC1C(=O)Nc1c(C)cccc1C.CCCCN1CCCCC1C(=O)Nc1c(C)cccc1C.Cc1ccc(C(=O)OC(C(=O)O)C(OC(=O)c2ccc(C)cc2)C(=O)O)cc1 (stereo not shown) [Preparation Example 4, bis(bupivacaine) di-p-toluoyl tartarate]
Response: 5084.8

Prompt: Return Compound concentration: DTTA for the following molecule: CCCCN1CCCCC1C(=O)Nc1c(C)cccc1C.Cc1ccc(C(=O)OC(C(=O)O)C(OC(=O)c2ccc(C)cc2)C(=O)O)cc1 (stereo not shown) [Preparation Example 3, mono(bupivacaine) di-p-toluoyl tartarate]
Response: 6900.6

Prompt: Return Compound concentration: DTTA for the following molecule: CCCN1CCCC[C@H]1C(=O)Nc1c(C)cccc1C.Cc1ccc(C(=O)OC(C(=O)O)C(OC(=O)c2ccc(C)cc2)C(=O)O)cc1 (stereo not shown) [Preparation Example 5, mono(ropivacaine) di-p-toluoyl tartarate]
Response: 6752.1

Prompt: Return Compound concentration: DTTA for the following molecule: CCCN1CCCC[C@H]1C(=O)Nc1c(C)cccc1C.CCCN1CCCC[C@H]1C(=O)Nc1c(C)cccc1C.Cc1ccc(C(=O)OC(C(=O)O)C(OC(=O)c2ccc(C)cc2)C(=O)O)cc1 (stereo not shown) [Preparation Example 6, bis(ropivacaine) di-p-toluoyl tartarate]
Response: 19990.1

---

Would you mind telling me the reported Compound concentration: Bupivacaine of each entry?
protocol summary: Test on the solubility in a simulated body fluid
Format: physicochemical
condition summary: 0.01 M PBS pH 7.4, 37° C., 1 h
Report only the number, with the unit µM understood.

Prompt: Return Compound concentration: Bupivacaine for the following compound: CCCCN1CCCCC1C(=O)Nc1c(C)cccc1C.CCCCN1CCCCC1C(=O)Nc1c(C)cccc1C.O=C(OC(C(=O)O)C(OC(=O)c1ccccc1)C(=O)O)c1ccccc1 (stereo not shown) [Preparation Example 2, bis(bupivacaine) dibenzoyl tartarate]
Response: 2848.7

Prompt: Return Compound concentration: Bupivacaine for the following compound: CCCCN1CCCCC1C(=O)Nc1c(C)cccc1C.O=C(OC(C(=O)O)C(OC(=O)c1ccccc1)C(=O)O)c1ccccc1 (stereo not shown) [Preparation Example 1, mono(bupivacaine) dibenzoyl tartarate]
Response: 8196

Prompt: Return Compound concentration: Bupivacaine for the following compound: CCCCN1CCCCC1C(=O)Nc1c(C)cccc1C.O=P1(O)Oc2ccc3ccccc3c2-c2c(ccc3ccccc23)O1 [Preparation Example 7, bupivacaine binaphthol phosphate]
Response: 280.7

Prompt: Return Compound concentration: Bupivacaine for the following compound: CCCCN1CCCCC1C(=O)Nc1c(C)cccc1C.CCCCN1CCCCC1C(=O)Nc1c(C)cccc1C.O=C(O)c1cc2ccccc2c(Cc2c(O)c(C(=O)O)cc3ccccc23)c1O [Preparation Example 29, bis(bupivacaine) pamoate]
Response: 269.9

---

protocol summary: Test on the solubility in a simulated body fluid
Type: physicochemical
condition summary: 0.01 M PBS pH 7.4, 37° C., 6 h
readout type: Compound concentration: Pamoic acid
Write the numeric value and follow it with the unit.

Prompt: Return Compound concentration: Pamoic acid for the following molecule: CCCCN1CCCCC1C(=O)Nc1c(C)cccc1C.O=C(O)c1cc2ccccc2c(Cc2c(O)c(C(=O)O)cc3ccccc23)c1O [Preparation Example 10, mono(bupivacaine) pamoate]
Response: 1867.3 µM

Prompt: Return Compound concentration: Pamoic acid for the following molecule: CCCN1CCCC[C@H]1C(=O)Nc1c(C)cccc1C.O=C(O)c1cc2ccccc2c(Cc2c(O)c(C(=O)O)cc3ccccc23)c1O [Preparation Example 9, mono(ropivacaine) pamoate]
Response: 1953.9 µM

Prompt: Return Compound concentration: Pamoic acid for the following molecule: CCCCN1CCCCC1C(=O)Nc1c(C)cccc1C.CCCCN1CCCCC1C(=O)Nc1c(C)cccc1C.O=C(O)c1cc2ccccc2c(Cc2c(O)c(C(=O)O)cc3ccccc23)c1O [Preparation Example 29, bis(bupivacaine) pamoate]
Response: 145 µM

Prompt: Return Compound concentration: Pamoic acid for the following molecule: CCCCN1CCCCC1C(=O)Nc1c(C)cccc1C.CCCCN1CCCCC1C(=O)Nc1c(C)cccc1C.O=C(O)c1cc2ccccc2c(Cc2c(O)c(C(=O)O)cc3ccccc23)c1O [Preparation Example 15, bis(bupivacaine) pamoate]
Response: 146.7 µM
